target: Transthyretin (Homo sapiens) (UniProt P02766); assay: Inhibition of wild type TTR aggregation expressed in Escherichia coli assessed as fibril formation at 7.2 uM after 72 hrs relative to untreated-control
Measured parameter: inhibition (%)

Record excerpt, results attached:
O=C(Nc1cc(Br)c(O)c(Br)c1)c1ccc([N+](=O)[O-])cc1 | 50
O=C(Nc1cc(Br)c(O)c(Br)c1)c1cccc(O)c1 | 9
O=C(Nc1cc(Br)c(O)c(Br)c1)c1ccccc1C(F)(F)F | 1
Nc1ccccc1C(=O)Nc1cc(Br)c(O)c(Br)c1 | 3

(A) O=C(Nc1cc(Br)c(O)c(Br)c1)c1cc(Br)c(O)c(Br)c1
(B) O=C(Nc1cc(Br)c(O)c(Br)c1)c1ccc(O)cc1
Which value of inhibition is numerically greater: that of A or that of B ? Indicate your choice by writing its label.
B
